The measured values listed here are drawn from patent US10111437B2.

Where a name gives a salt, the structure may show the parent alone.
Recorded melting point by entry

Worked set:
N=C(N)c1ccc(OCCCCCn2ccn(CCOc3ccc(C(=N)N)cc3)c2=N)cc1 (as salt: hydrochloride) = 183 to 187 °C
N=C(NCCCc1cc2cc(C(=N)N)ccc2o1)NCCCc1cc2cc(C(=N)N)ccc2o1 (as salt: hydrochloride) = 174 to 182 °C
N=C(NCC#Cc1ccc(C(=N)N)cc1)NCC#Cc1ccc(C(=N)N)cc1 (as salt: hydrochloride) = 220 °C

The measured melting point associated with Cc1cn(CCCOc2ccc(C(=N)N)cc2)c(=N)n1CCCOc1ccc(C(=N)N)cc1 (as salt: hydrochloride) reads 182 to 186 °C

Kindly note the recorded melting point for Cc1cc(C(=N)N)ccc1OCCCCNC(=N)NCCCCOc1ccc(C(=N)N)cc1C (as salt: hydrochloride) , which is 171 to 180 °C

So for `N/C(=N\O)c1ccc(OCCCn2ccn(CCCOc3ccc(/C(N)=N/O)cc3)c2=NC(=O)C(F)(F)F)cc1` , the logged melting point turned out to be 187 to 201 °C

Given item Cc1c(C)n(CCCOc2ccc(C(=N)N)cc2)c(=N)n1CCCOc1ccc(C(=N)N)cc1 (as salt: hydrochloride) , the value recorded as its melting point is 188 to 199 °C

---

Test system: Apple scab fungus (Venturia inaequalis)
assayExplanation: Apple scab control test (foliar spray on apple seedlings)
Type: in vivo
testSettings: 125 ppm active ingredient, sprayed on apple seedlings (variety Orin) before inoculation, vs untreated
Method: The dilution was sprayed to apple seedlings (variety “Orin”, 3 to 4 leaf stage) grown in clay pots. […] The control value was calculated by the following equation. [formula]
valueKind: pest or weed control at 125 ppm

Study these solved cases before continuing.
Cc1cn(CCCOc2ccc(C(=N)N)cc2)c(=N)n1CCCOc1ccc(C(=N)N)cc1 = ≥ 75%
N=C(N)c1ccc(OCCCN2CCN(CCCOc3ccc(C(=N)N)cc3)C2=N)cc1 = ≥ 75%
N=C(NCCCCCc1nc(C(=N)N)cs1)NCCCOc1ccc(C(=N)N)cc1 = ≥ 75%
N=C(N)NCCCCCCCNC(=N)NCCOc1ccc(C(=N)N)cc1 = ≥ 75%

Here is another compound to look at.
Short answer for `N=C(NCCCOc1ccc(C2=NCCN2)cc1)NCCCOc1ccc(C2=NCCN2)cc1` : pest or weed control at 125 ppm was ≥ 75%

---

System: Apple scab fungus (Venturia inaequalis)
assayExplanation: Apple scab control test (foliar spray on apple seedlings)
Assay type: in vivo
testSettings: 125 ppm active ingredient, sprayed on apple seedlings (variety Orin) before inoculation, vs untreated
valueKind: pest or weed control at 125 ppm

N=C(N)NCCCCCCCNC(=N)NCCCCCOc1ccc(C(=N)N)cc1 = ≥ 75%
N=C(NCCCCOc1ccc(C(=N)N)cc1)NCCCCOc1ccc(C(=N)N)cc1 = ≥ 75%
N=C(N)NCCCCCCCCNC(=N)NCCOc1ccc2cc(C3=NCCCN3)ccc2c1 = ≥ 75%
N=C(N)c1ccc(OCCCCn2ccn(CCCCOc3ccc(C4=NCCCN4)cc3)c2=N)cc1 = ≥ 75%
N=C(NCCCCOc1ccc(C(=N)N)cc1)NCCCCOc1ccc(C(=N)N)cn1 = ≥ 75%

Reported pest or weed control at 125 ppm (Apple scab fungus (Venturia inaequalis)) for entry `N=C(N)NCCCCCCCN1CCN(CCCCCCCNC(=N)N)C1=N` is ≥ 75%

The recorded pest or weed control at 125 ppm with Apple scab fungus (Venturia inaequalis) for `N=C(NCC/C=C/c1ccc(C(=N)N)cc1)NCC/C=C/c1ccc(C(=N)N)cc1` was ≥ 75%

So the reported pest or weed control at 125 ppm for `CN(CCCOc1ccc(C(=N)N)cc1)C(=N)NCCCOc1ccc(C(=N)N)cc1` , on Apple scab fungus (Venturia inaequalis), turned out to be ≥ 75%

pest or weed control at 125 ppm on Apple scab fungus (Venturia inaequalis) for `N=C(N)NCCCCCCCNC(=N)NCCCCOc1ccc(C(=N)N)cc1` is ≥ 75%

---

Counter-ions that a name gives are not always drawn.
Each entry below carries its reported melting point.

// solved cases for melting point follow
N=C(N)c1ccc(OCCCn2ccn(CCCOc3ccc(C(=N)N)cc3Cl)c2=N)c(Cl)c1 (as salt: hydrochloride) = 184 to 190 °C
N=C(N)c1ccc(OCCCn2ccn(CCCc3cc4cc(C(=N)N)ccc4o3)c2=N)cc1 (as salt: hydrochloride) = 227 to 236 °C
N=C(NCC/C=C/c1ccc(C(=N)N)cc1)NCC/C=C/c1ccc(C(=N)N)cc1 (as salt: hydrochloride) = 179 to 181 °C
N=C(NCCOCc1ccc(C(=N)N)cc1)NCCOCc1ccc(C(=N)N)cc1 (as salt: hydrochloride) = 262 to 267 °C
N=C(N)c1ccc(SCCCn2ccn(CCCSc3ccc(C(=N)N)cc3)c2=N)cc1 (as salt: hydrochloride) = 169 to 172 °C

Please turn your attention to the following entry.
Measured melting point, N=C(N)c1ccc(OCCCn2ccn(CCCOc3ccc(C(=N)N)c(F)c3)c2=N)cc1F (as salt: hydrochloride) : 183 to 187 °C

---

Counter-ions that a name gives are not always drawn.
valueKind: melting point

Consider the worked cases shown below.
N=C(NCCCOCc1ccc(C(=N)N)cc1)NCCCOc1ccc(C(=N)N)cc1 (as salt: trifluoroacetate) [compound 143] = 192 to 197 °C
N=C(NCCCOc1ccc(C(=N)N)c(F)c1)NCCCOc1ccc(C(=N)N)c(F)c1 (as salt: hydrochloride) [compound 82] = 181 to 185 °C
N=C(N)c1ccc(OCCCCn2ccn(CCCCOc3ccc(C(=N)N)cc3)c2=N)cc1 (as salt: hydrochloride) [compound 36] = 178 to 180 °C

Field: next compound
Entry N=C(N)c1ccc(OCCCn2ccn(CCCSc3ccc(C(=N)N)cc3)c2=N)cc1 (as salt: hydrochloride) [compound 173] — recorded melting point = 168 to 171 °C
